assay: amyloid nucleation score (Sup35N fusion, yeast selection) (log enrichment); library NNK2; higher = more nucleation; inactive = no reads after selection;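 note: zero at mode of non-aggregating sequences after 7 days selection at 30°C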
property.name: amyloid nucleation score

>>> val("RYNIVLGRLL")
"inactive"
>>> val("KFTLCWRTRMAFMSPWLMRI")
"inactive"
>>> val("NDAYITSVVGFTRYMYNFMV")
"inactive"

* * *

test: amyloid nucleation score (Sup35N fusion, yeast selection) (log enrichment); library NNK2; higher = more nucleation; inactive = no reads after selection
# amyloid nucleation score listing for each entry below
Lab note: jot down the number only; don't add units.

>>> val("FGCPIVPVISIGFPLYGVYY")
1.1
>>> val("NGWKYLYIWFPAICSCFMRG")
-0.213
>>> val("HIHSKQIRVFNFSNFLEQIY")
6.11
>>> val("GKKTAGDIRCWWRWSLGCSP")
0.731
>>> val("SHQWLRRLPWVI")
0.528

Supply measured amyloid nucleation score of RVNTLLHILMYFNCLSGVEL in your reply. 4.88

Supply measured amyloid nucleation score of LVGLISRNKVVRTGIENNKD in your reply. -0.059

Supply measured amyloid nucleation score of ISSSIEHNRCGVEINVICWS in your reply. 7.31

Supply measured amyloid nucleation score of DLMDVEGLSGPPLRSMQVLK in your reply. 5

Supply measured amyloid nucleation score of IMLGTFMRNLQNLQHFVRHV in your reply. 0.337

Supply measured amyloid nucleation score of YVQRNNARVTLGGTHSFRSV in your reply. 3.83

Supply measured amyloid nucleation score of SVLMSCD in your reply. 0.135

Supply measured amyloid nucleation score of ICQRVDCSLCGPGWCTFVEH in your reply. 9.4

* * *

test: amyloid nucleation score (Sup35N fusion, yeast selection) (log enrichment); library NNK1; higher = more nucleation; inactive = no reads after selection
Record True whenever amyloid nucleation score is at 0.8 or higher; record False when lower.

The examples below pair each entry with its known result.
>>> group("HITDYRVRT")
"True"
>>> group("SEMLSLKIGQGTVTPFNFWM")
"False"
>>> group("YWSVQG")
"False"
>>> group("REIIGRLLSVRTSLAEYNSG")
"False"
>>> group("RLCKKSIHRDVASRFPNEDV")
"True"

Determine whether measured amyloid nucleation score meets or exceeds 0.8 for QHRVCLHCYKM False

Determine whether measured amyloid nucleation score meets or exceeds 0.8 for INSRAIRLAKGDSVSWSSHG False

* * *

assay: amyloid nucleation score (Sup35N fusion, yeast selection) (log enrichment); library NNK2; higher = more nucleation; inactive = no reads after selection
property.name: amyloid nucleation score

>>> val("RGLLLSTMRGHIDSLRLS")
"inactive"
>>> val("MVSLLNFRECMHY")
"inactive"
>>> val("VARFILHCY")
-0.492
>>> val("CRNQMQGWWYVWMVGVCRGS")
"inactive"
>>> val("EHTFLFA")
-0.297

Supply measured amyloid nucleation score of YFNSSVLILVVWLLY in your reply. inactive

Supply measured amyloid nucleation score of GYTTMRKCFAQVEFRTPADT in your reply. inactive

Supply measured amyloid nucleation score of RVIQLQKVTHWW in your reply. 2.72

* * *

assay: amyloid nucleation score (Sup35N fusion, yeast selection) (log enrichment); library NNK2; higher = more nucleation; inactive = no reads after selection
property.name: amyloid nucleation score
Lab note: jot down the number only; don't add units.

>>> val("LEPYLS")
-0.48

Supply measured amyloid nucleation score of FFVTAPIGMFSLD in your reply. -2.17

Supply measured amyloid nucleation score of ETGSRGAN in your reply. 0.263

Supply measured amyloid nucleation score of VIFTGKDLLVSLQTKCLAVW in your reply. 0.942

Supply measured amyloid nucleation score of LMIGSEDAMNYGCSCNPYLF in your reply. -1.04

Supply measured amyloid nucleation score of DNGNTMDES in your reply. 0.232

* * *

assay: amyloid nucleation score (Sup35N fusion, yeast selection) (log enrichment); library NNK2; higher = more nucleation; inactive = no reads after selection
property.name: amyloid nucleation score
Lab note: jot down the number only; don't add units.

Supply measured amyloid nucleation score of LRGYRGFPYCDLYFVCMLRN in your reply. -1.06

* * *

assay: amyloid nucleation score (Sup35N fusion, yeast selection) (log enrichment); library NNK1; higher = more nucleation; inactive = no reads after selection
Binning rule for recorded amyloid nucleation score: group A: < 0.04; group B: ≥ 0.04 and < 0.7; group C: ≥ 0.7

>>> group("RMTWQM")
"group A"
>>> group("FGFVSPGPY")
"group A"
>>> group("TEFHAKGPTWCELSYSFAIL")
"group A"
>>> group("VFASGAAGTKFWR")
"group B"
>>> group("GMSVNVWMYSSLGVFCLIYV")
"group A"

Lab note: which band did EHNNFFICVCWSAGTSVRMI land in? group C

Lab note: which band did CNYSSSTVGYRSDMRVCSDT land in? group B

Lab note: which band did LVSGRRGRRESSNHMVGLLE land in? group C

Lab note: which band did DLNLFDRNHVELRMIVD land in? group C

Lab note: which band did AVSNLATEGRVYLKVRLESW land in? group A

Lab note: which band did CSGMMARPWIYLVGVYKISN land in? group C

Lab note: which band did TSAGKYHSSIILLYLWDYVT land in? group C

Lab note: which band did SYNGCRRFNRCDRVCRNSNT land in? group C

Lab note: which band did KIKLMF land in? group A

Lab note: which band did GNFLFCTVDRHLTGSCS land in? group B

Lab note: which band did GDLRSSILRLPTWRLWWITT land in? group B

Lab note: which band did GYFIVALRFSSLVEVNATSC land in? group B

Lab note: which band did RDYFTN land in? group C

Lab note: which band did YLWADTRCLTGVW land in? group B

Lab note: which band did MVQNVWDVRYDEAAMTLVRH land in? group B

Lab note: which band did DRVCILEQLDRSRGATVCAR land in? group C

Lab note: which band did RNSIVGCGYDVGTHVSDLGP land in? group A

Lab note: which band did FVGRCLNMKTCRRCLLSWDN land in? group B

Lab note: which band did PRRMKT land in? group B

* * *

assay: amyloid nucleation score (Sup35N fusion, yeast selection) (log enrichment); library NNK1; higher = more nucleation; inactive = no reads after selection
# amyloid nucleation score listing for each entry below
Lab note: jot down the number only; don't add units.

>>> val("SNTDYCVSVPVLTVAFSVWA")
-0.343
>>> val("HYKDSITVFFIFHIPIQMMM")
4.25
>>> val("WYLGNAPRGATRA")
-0.229

Supply measured amyloid nucleation score of FINWLPNNDHFFCRNWICLQ in your reply. 5.9

Supply measured amyloid nucleation score of ISDCNRMFTSLSWDMSSPLI in your reply. 1.75

Supply measured amyloid nucleation score of VALLKWFRIWVSFANCLWGR in your reply. 0.128

Supply measured amyloid nucleation score of IVPRAFIAWIAYQGRSPYGA in your reply. 0.619

Supply measured amyloid nucleation score of FLKKGERTIF in your reply. -0.446

Supply measured amyloid nucleation score of VDVYFTSAMLSRLGLVGAVA in your reply. 0.862

Supply measured amyloid nucleation score of RFEGERRVVG in your reply. -0.035

Supply measured amyloid nucleation score of FCRHLGLSS in your reply. 1.25

* * *

assay: amyloid nucleation score (Sup35N fusion, yeast selection) (log enrichment); library NNK1; higher = more nucleation; inactive = no reads after selection
Record condition met whenever amyloid nucleation score is at 0.04 or higher; record condition not met when lower.

The examples below pair each entry with its known result.
>>> group("ATMVMELMVSELGLEEVFDV")
"condition not met"
>>> group("IPRYQSGLWGCCVY")
"condition met"
>>> group("FRSLFYVFHYLECFYL")
"condition met"
>>> group("FGVSVLCSEWGTPRFVCWVN")
"condition not met"
>>> group("ELSSLGTCNCFHIRVSWGYM")
"condition met"

Determine whether measured amyloid nucleation score meets or exceeds 0.04 for LMLPMESAPKRLGEGVGPSR condition met

Determine whether measured amyloid nucleation score meets or exceeds 0.04 for WDHLRGLTCNVFIMIVKSFF condition met

Determine whether measured amyloid nucleation score meets or exceeds 0.04 for MPLSILQLKTRFFKPSNDSR condition met

Determine whether measured amyloid nucleation score meets or exceeds 0.04 for SHENSRSNNISSHQP condition not met

Determine whether measured amyloid nucleation score meets or exceeds 0.04 for MCLSPVNNVLLYFRFNKRAE condition met

Determine whether measured amyloid nucleation score meets or exceeds 0.04 for YVYLYGGSSQFVWYGLFSFA condition met

Determine whether measured amyloid nucleation score meets or exceeds 0.04 for RLSRLLTLISVACSTFLCVV condition not met

Determine whether measured amyloid nucleation score meets or exceeds 0.04 for CSYDNVPDLFC condition met

Determine whether measured amyloid nucleation score meets or exceeds 0.04 for FRYSSDWWSYS condition not met

Determine whether measured amyloid nucleation score meets or exceeds 0.04 for FRVYVSCVLCNDCVVYHRFE condition met

Determine whether measured amyloid nucleation score meets or exceeds 0.04 for SPRSLMKGVITTHIIG condition met

Determine whether measured amyloid nucleation score meets or exceeds 0.04 for NCNSGSNDTGFWQMASRTGL condition met

Determine whether measured amyloid nucleation score meets or exceeds 0.04 for KFSCGTFSLRHPT condition met

Determine whether measured amyloid nucleation score meets or exceeds 0.04 for EFIIVRRDGLGAVYSVTNAF condition met

Determine whether measured amyloid nucleation score meets or exceeds 0.04 for GVWYCYLGVN condition not met

Determine whether measured amyloid nucleation score meets or exceeds 0.04 for YNVQVLQVGGRLCRNKCSSC condition met

Data origin: the supplement of paper PMC12042874
